- Test system: KOR (Homo sapiens)
- Test summary: KOR cAMP inhibition screening, agonist mode
- Test context: read-out: Agonist Emax (% U69,593)
Entry flag: Yes if Emax reaches 10%; No if it does not.

Example results:
C#CCOC(=O)C1=CC23CCCCC2C2CC(C4CCCC(C)N4)C4(C)OC23C14 (stereo not shown)    No
COC(=O)C1=CC23CCCCC2[C@@H]2C[C@H](c4cccnc4)C4(C)OC23[C@@H]14 (stereo partly shown)    Yes
CCOC(=O)C1=CC23CCCCC2C2CC(C4CCCC(C)N4C)C4(C)OC23C14 (stereo not shown)    Yes
COC1CC23CCCCC2C2CC(C4CCCC(C)N4)C4(C)OC23C14 (stereo not shown) [drawing 168]    Yes

Does the reported Emax for COCC1=CC23CCCCC2C2CC(C4CCCC(C)N4C)C4(C)OC23C14 (stereo not shown) fall at or above the 10% mark?
Yes

Determine whether this molecule has Emax no lower than 10%: CC1CCCC(C2CC3C4CCCCC45C=C(CO)C4C2(C)OC345)N1C (stereo not shown)
Yes

---

- Test system: KOR (Homo sapiens)
- Test summary: KOR cAMP inhibition screening, agonist mode
Measured parameter: pEC50
Note on pEC50: it is the negative log10 of concentration, concentration in mol/L.

Which pEC50 value belongs to COC(=O)C1=CC23CCCCC2[C@@H]2C[C@H](c4cccc(C)c4)C4(C)OC23[C@@H]14 (stereo partly shown) ?
5.98

---

- Test system: KOR (Homo sapiens, UniProt P41145)
- Sequence (P41145 whole entry): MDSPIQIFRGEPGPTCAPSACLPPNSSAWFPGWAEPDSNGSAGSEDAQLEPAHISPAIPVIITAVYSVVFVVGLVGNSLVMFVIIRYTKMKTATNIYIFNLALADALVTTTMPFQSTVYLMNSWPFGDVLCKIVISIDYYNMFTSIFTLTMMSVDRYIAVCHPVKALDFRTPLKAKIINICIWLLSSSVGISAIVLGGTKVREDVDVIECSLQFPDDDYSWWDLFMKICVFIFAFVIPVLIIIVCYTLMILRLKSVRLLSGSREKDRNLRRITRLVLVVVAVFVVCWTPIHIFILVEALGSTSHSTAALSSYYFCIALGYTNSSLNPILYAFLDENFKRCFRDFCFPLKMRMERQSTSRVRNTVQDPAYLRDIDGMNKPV
- Test summary: KOR cAMP inhibition screening, antagonist mode vs. 100 nM U69,593
- Test context: Antagonist vs. 100 nM U69,593 IC50 (nM)
Measured parameter: IC50 (nM)
Answer with a number only, understood to be in nM.

# IC50 lookup, item COC(=O)C1CC23CCCCC2C2CC(C4CCCC(C)N4)C4(C)OC23C14 (centres unmarked) [drawing 153]
5000

# lookup: IC50 of CC1CCCC(C2CC3C4CCCCC45C=C(CO)C4C2(C)OC345)N1C (centres unmarked)
116

Given CC1CCCC([C@H]2C[C@H]3C4CCCCC45C=C(I)[C@H]4C2(C)OC345)N1C (some centres unmarked) , state its recorded IC50.
1400

What measured IC50 goes with CC1CCCC(C2CC3C4CCCCC45C=C(I)C4C2(C)OC345)N1C (centres unmarked) ?
830

---

- Test system: KOR (Homo sapiens)
- Test summary: KOR cAMP inhibition screening, antagonist mode vs. 100 nM U69,593
- Test context: Antagonist vs. 100 nM U69,593 IC50 (nM)
Measured parameter: IC50 (nM)
Give the quantity in nM, number only.

Consider the worked cases shown below.
COC1CC23CCCCC2C2CC(C4CCCC(C)N4)C4(C)OC23C14 (stereo not shown) [drawing 167]    6250
C#CCOC(=O)C1=CC23CCCCC2C2CC(C4CCCC(C)N4)C4(C)OC23C14 (stereo not shown)    556
COCC1=CC23CCCCC2C2CC(C4CCCC(C)N4C)C4(C)OC23C14 (stereo not shown)    3220

Here's the next entry for you.
Recorded IC50 of CCOC(=O)C1=CC23CCCCC2C2CC(C4CCCC(C)N4C)C4(C)OC23C14 (stereo not shown) , please.
3390

---

Overview of recorded IC50 for various molecules
- Test system: UniProt P41145
- Test summary: KOR cAMP inhibition screening, antagonist mode vs. 100 nM U69,593
- Test context: Antagonist vs. 100 nM U69,593 IC50 (nM)

Known results for molecules:
COC(=O)C1CC23CCCCC2C2CC(C4CCCC(C)N4)C4(C)OC23C14 (stereo not drawn) [drawing 154]    > 10000 nM
COC(=O)C1=CC23CCCCC2C2CC(C4CCCC(C)N4C(C)=O)C4(C)OC23C14 (stereo not drawn)    > 10000 nM

Then this molecule:
What measured IC50 goes with COC(=O)C1=CC23CCCCC2[C@@H]2C[C@H](c4cccnc4)C4(C)OC23[C@@H]14 (stereo partly drawn) ?
> 10000 nM
